assay: Plasma pharmacokinetics of pamiparib, single dose and steady state, non-compartmental
Format: in vivo, human
condition_context: human, plasma, oral, 40 mg, Steady state (Cycle 1 Day 10), 40 mg BID, N 4; median (range); read-out: Tmax

{"compound": "C[C@]12CCCN1CC1=NNC(=O)c3cc(F)cc4[nH]c2c1c34 [pamiparib, Pamiparib]", "measurement_units": "h", "Tmax": 1.1}

###

assay: Plasma pharmacokinetics of pamiparib, single dose and steady state, non-compartmental
Type: in vivo, human
condition_context: human, plasma, oral, 20 mg, Single dose, 20 mg BID cohort, N 4; geometric mean (geometric CV%); read-out: AUC0-9
Protocol: Secondary objectives were assessment of PK parameters and antitumor activity. Blood samples for the PK analysis were collected at Cycle 1 on Days 1, 2, and 3. […] Antitumor activity per RECIST v1.1 was assessed in all evaluable patients. […]

{"compound": "C[C@]12CCCN1CC1=NNC(=O)c3cc(F)cc4[nH]c2c1c34 [pamiparib, Pamiparib]", "measurement_units": "ng·h/mL", "AUC(0-t)": 4130}

###

assay: Plasma pharmacokinetics of pamiparib, single dose and steady state, non-compartmental
Type: in vivo, human
condition_context: human, plasma, oral, 60 mg, Steady state (Cycle 1 Day 10), 60 mg BID, N 5; geometric mean (geometric CV%); read-out: AUC0-12

{"smiles": "C[C@]12CCCN1CC1=NNC(=O)c3cc(F)cc4[nH]c2c1c34", "measurement_units": "ng·h/mL", "AUC(0-t)": 47100}

###

assay: Plasma pharmacokinetics of pamiparib, single dose and steady state, non-compartmental
Assay type: in vivo, human
condition_context: human, plasma, oral, 60 mg, Single dose, 60 mg BID cohort, N 7; geometric mean (geometric CV%); read-out: AUC0-12
Procedure: Secondary objectives were assessment of PK parameters and antitumor activity. Blood samples for the PK analysis were collected at Cycle 1 on Days 1, 2, and 3. […] Antitumor activity per RECIST v1.1 was assessed in all evaluable patients. […]

{"smiles": "C[C@]12CCCN1CC1=NNC(=O)c3cc(F)cc4[nH]c2c1c34", "measurement_units": "µg·h/mL", "AUC(0-t)": 14.8}

###

assay: Plasma pharmacokinetics of pamiparib, single dose and steady state, non-compartmental
Type: in vivo, human
condition_context: human, plasma, oral, 60 mg, Single dose, 60 mg BID cohort, N 7; median (range); read-out: Tmax

{"smiles": "C[C@]12CCCN1CC1=NNC(=O)c3cc(F)cc4[nH]c2c1c34", "Tmax": "1.13 h"}

###

assay: Plasma pharmacokinetics of pamiparib, single dose and steady state, non-compartmental
Assay type: in vivo, human
condition_context: human, plasma, oral, 20 mg, Steady state (Cycle 1 Day 10), 20 mg BID, N 4; median (range); read-out: Tmax

{"compound": "C[C@]12CCCN1CC1=NNC(=O)c3cc(F)cc4[nH]c2c1c34 [pamiparib, Pamiparib]", "Tmax (h)": 1.04}

###

assay: Plasma pharmacokinetics of pamiparib, single dose and steady state, non-compartmental
Format: in vivo, human
condition_context: human, plasma, oral, 40 mg, Single dose, 40 mg BID cohort, N 4; geometric mean (geometric CV%); read-out: AUC0-9

{"smiles": "C[C@]12CCCN1CC1=NNC(=O)c3cc(F)cc4[nH]c2c1c34", "AUC(0-t) / ng·h/mL": 8560}

###

assay: Plasma pharmacokinetics of pamiparib, single dose and steady state, non-compartmental
Format: in vivo, human
condition_context: human, plasma, oral, 20 mg, Steady state (Cycle 1 Day 10), 20 mg BID, N 4; geometric mean (geometric CV%)

{"smiles": "C[C@]12CCCN1CC1=NNC(=O)c3cc(F)cc4[nH]c2c1c34", "Cmax [ng/mL]": 1280}

###

assay: Plasma pharmacokinetics of pamiparib, single dose and steady state, non-compartmental
Format: in vivo, human
condition_context: human, plasma, oral, 40 mg, Steady state (Cycle 1 Day 10), 40 mg BID, N 4; geometric mean (geometric CV%); read-out: AUC0-12

{"smiles": "C[C@]12CCCN1CC1=NNC(=O)c3cc(F)cc4[nH]c2c1c34", "AUC(0-t) / ng·h/mL": 40900}

###

assay: Plasma pharmacokinetics of pamiparib, single dose and steady state, non-compartmental
Assay type: in vivo, human
condition_context: human, plasma, oral, 60 mg, Single dose, 60 mg BID cohort, N 7; geometric mean (geometric CV%); read-out: AUC0-9
Method: Secondary objectives were assessment of PK parameters and antitumor activity. Blood samples for the PK analysis were collected at Cycle 1 on Days 1, 2, and 3. […] Antitumor activity per RECIST v1.1 was assessed in all evaluable patients. […]

{"smiles": "C[C@]12CCCN1CC1=NNC(=O)c3cc(F)cc4[nH]c2c1c34", "AUC(0-t) (ng·h/mL)": 11900}

###

assay: Plasma pharmacokinetics of pamiparib, single dose and steady state, non-compartmental
Format: in vivo, human
condition_context: human, plasma, oral, 60 mg, Steady state (Cycle 1 Day 10), 60 mg BID, N 5; geometric mean (geometric CV%)

{"smiles": "C[C@]12CCCN1CC1=NNC(=O)c3cc(F)cc4[nH]c2c1c34", "Cmax": "5.86 µg/mL"}

###

assay: Plasma pharmacokinetics of pamiparib, single dose and steady state, non-compartmental
Format: in vivo, human
condition_context: human, plasma, po, 60 mg, oral administration, RP2D of 60 mg BID; read-out: median Tmax
measurement_type: Tmax

{"compound": "C[C@]12CCCN1CC1=NNC(=O)c3cc(F)cc4[nH]c2c1c34 [pamiparib, Pamiparib]", "observed_value": "~1 h"}

###

assay: Plasma pharmacokinetics of pamiparib, single dose and steady state, non-compartmental
Assay type: in vivo, human
condition_context: human, plasma, oral, 20 mg, Single dose, 20 mg BID cohort, N 4; geometric mean (range)
Experimental: Secondary objectives were assessment of PK parameters and antitumor activity. Blood samples for the PK analysis were collected at Cycle 1 on Days 1, 2, and 3. […] Antitumor activity per RECIST v1.1 was assessed in all evaluable patients. […]
measurement_type: half-life (h)

{"smiles": "C[C@]12CCCN1CC1=NNC(=O)c3cc(F)cc4[nH]c2c1c34", "observed_value": 12.1}

###

assay: Plasma pharmacokinetics of pamiparib, single dose and steady state, non-compartmental
Assay type: in vivo, human
condition_context: human, plasma, oral, 20 mg, Single dose, 20 mg BID cohort, N 4; median (range); read-out: Tmax
measurement_type: Tmax (h)

{"smiles": "C[C@]12CCCN1CC1=NNC(=O)c3cc(F)cc4[nH]c2c1c34", "measurement_type": "Tmax", "measurement_units": "h", "observed_value": 1.01}

###

assay: Plasma pharmacokinetics of pamiparib, single dose and steady state, non-compartmental
Type: in vivo, human
condition_context: human, plasma, oral, 40 mg, Single dose, 40 mg BID cohort, N 4; geometric mean (range)
Method: Secondary objectives were assessment of PK parameters and antitumor activity. Blood samples for the PK analysis were collected at Cycle 1 on Days 1, 2, and 3. […] Antitumor activity per RECIST v1.1 was assessed in all evaluable patients. […]

{"compound": "C[C@]12CCCN1CC1=NNC(=O)c3cc(F)cc4[nH]c2c1c34 [pamiparib, Pamiparib]", "half-life": "11.8 h"}

###

assay: Plasma pharmacokinetics of pamiparib, single dose and steady state, non-compartmental
Type: in vivo, human
condition_context: human, plasma, oral, 40 mg, Steady state (Cycle 1 Day 10), 40 mg BID, N 4; geometric mean (geometric CV%)

{"smiles": "C[C@]12CCCN1CC1=NNC(=O)c3cc(F)cc4[nH]c2c1c34", "Cmax (ng/mL)": 5210}

###

assay: Plasma pharmacokinetics of pamiparib, single dose and steady state, non-compartmental
Format: in vivo, human
condition_context: human, plasma, oral, 40 mg, Single dose, 40 mg BID cohort, N 4; median (range); read-out: Tmax
Description: Secondary objectives were assessment of PK parameters and antitumor activity. Blood samples for the PK analysis were collected at Cycle 1 on Days 1, 2, and 3. […] Antitumor activity per RECIST v1.1 was assessed in all evaluable patients. […]
measurement_type: Tmax (min)

{"smiles": "C[C@]12CCCN1CC1=NNC(=O)c3cc(F)cc4[nH]c2c1c34", "measurement_type": "Tmax", "observed_value": 58.8}

###

assay: Plasma pharmacokinetics of pamiparib, single dose and steady state, non-compartmental
Type: in vivo, human
condition_context: human, plasma, oral, 20 mg, Single dose, 20 mg BID cohort, N 4, plasma; geometric mean (geometric CV%)

{"smiles": "C[C@]12CCCN1CC1=NNC(=O)c3cc(F)cc4[nH]c2c1c34", "Cmax [ng/mL]": 718}

###

assay: Plasma pharmacokinetics of pamiparib, single dose and steady state, non-compartmental
Format: in vivo, human
condition_context: human, plasma, oral, 20 mg, Steady state (Cycle 1 Day 10), 20 mg BID, N 4; geometric mean (geometric CV%); read-out: AUC0-12
measurement_type: AUC(0-t) (ng·h/mL)

{"molecule": "C[C@]12CCCN1CC1=NNC(=O)c3cc(F)cc4[nH]c2c1c34 [pamiparib, Pamiparib]", "observed_value": 10300}

Where these numbers come from: paper PMC7826463
